All values here come from PubChem BioAssay (Tox21).

- protocol summary: A CellTox Green Cytotoxicity Assay to monitor cytotoxicity in HepG2 cells - 40 hour (AID 1224879); further: nearly all actives have a fitted effect of over 40% in size
- assay conditions: CellTox Green fluorescence; series mostly up to 76.8 µM
Inconclusive results are not listed. Active and inactive are the calls of the source. The call rests on the fitted dose curve; in most records, active means well fitted activation curve with a large enough effect in the repeat runs; inconclusive means weak or mixed curves; inactive means flat fitted curve, though single readings scatter.
Respond using exactly one of the listed classes: TRUE for active, FALSE for inactive

Test call for this molecule, please: CC(C)OC(=O)C(C)N(C(=O)c1ccccc1)c1ccc(F)c(Cl)c1 (configuration not stated)
FALSE

More entries:
Can you look up the reported call for C[Si](C)(CCCN)O[Si](C)(C)CCCN for me?
FALSE

What do you get for CC(=O)c1ccc2c(c1)N(CCCN1CCC(CCO)CC1)c1ccccc1S2 ?
TRUE

Try CCC(=O)O[C@]1(C(=O)CCl)[C@@H](C)C[C@H]2[C@@H]3CCC4=CC(=O)C=C[C@]4(C)[C@@]3(F)[C@@H](O)C[C@@]21C next.
FALSE

Subsequent entry: O=C1C(O)=C(O)C(=O)C(O)=C1O
FALSE

Continue with Cc1ccc(C(=O)Oc2ccc(C(O)CNC(C)(C)C)cc2OC(=O)c2ccc(C)cc2)cc1 (configuration not stated)
TRUE

Param item: C[C@H]1C[C@H]2[C@@H]3CCC4=CC(=O)C=C[C@]4(C)[C@@]3(Cl)[C@@H](O)C[C@]2(C)[C@@]1(O)C(=O)CO
FALSE
